Target: wild-type EGFR transformed Ba/F3 cells (Homo sapiens)
Sequence (P00533 25-1210): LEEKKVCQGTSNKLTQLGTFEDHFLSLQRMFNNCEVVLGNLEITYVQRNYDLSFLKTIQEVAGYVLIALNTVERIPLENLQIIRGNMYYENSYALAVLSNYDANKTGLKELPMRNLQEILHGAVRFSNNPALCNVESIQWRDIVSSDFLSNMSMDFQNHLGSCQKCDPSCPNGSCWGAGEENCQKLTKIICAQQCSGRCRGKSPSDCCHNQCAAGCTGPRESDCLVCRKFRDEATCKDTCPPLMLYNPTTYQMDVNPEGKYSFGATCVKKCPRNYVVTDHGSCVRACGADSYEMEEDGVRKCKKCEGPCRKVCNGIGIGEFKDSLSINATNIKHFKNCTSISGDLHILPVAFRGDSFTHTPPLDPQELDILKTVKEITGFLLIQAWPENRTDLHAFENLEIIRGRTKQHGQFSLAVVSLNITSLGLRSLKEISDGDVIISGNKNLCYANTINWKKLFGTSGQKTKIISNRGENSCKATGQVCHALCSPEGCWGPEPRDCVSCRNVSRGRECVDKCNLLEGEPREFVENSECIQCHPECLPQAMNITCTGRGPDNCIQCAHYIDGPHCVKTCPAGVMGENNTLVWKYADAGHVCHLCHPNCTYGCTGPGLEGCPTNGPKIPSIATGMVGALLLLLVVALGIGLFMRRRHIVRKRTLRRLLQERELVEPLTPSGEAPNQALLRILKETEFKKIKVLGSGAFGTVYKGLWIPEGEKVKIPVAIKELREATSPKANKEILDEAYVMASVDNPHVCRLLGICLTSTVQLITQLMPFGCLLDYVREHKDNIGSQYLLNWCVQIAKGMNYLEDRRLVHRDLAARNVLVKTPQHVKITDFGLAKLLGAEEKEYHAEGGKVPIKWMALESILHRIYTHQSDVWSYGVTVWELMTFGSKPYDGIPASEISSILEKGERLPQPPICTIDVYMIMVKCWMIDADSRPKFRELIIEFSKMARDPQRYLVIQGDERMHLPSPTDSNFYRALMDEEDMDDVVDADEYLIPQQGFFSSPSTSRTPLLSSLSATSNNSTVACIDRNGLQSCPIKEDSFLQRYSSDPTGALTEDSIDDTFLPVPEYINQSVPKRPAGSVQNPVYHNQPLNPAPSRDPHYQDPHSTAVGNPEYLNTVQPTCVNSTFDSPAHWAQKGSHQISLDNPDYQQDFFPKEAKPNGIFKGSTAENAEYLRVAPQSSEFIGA
Test: Proliferation inhibition assay, wild-type EGFR transformed Ba/F3 cells
Conditions: MTS assay, 72 hours
Procedure: Cell growth inhibition can be assessed by MTS assay or by Cell Titer Glo Luminescent Cell viability assay (Promega®). […] The viability of the cells are then assessed. […] Cell growth inhibition was assessed by MTS assay for Ba/F3, DFCI58-229, and DFCI127c cells, or by Cell Titer Glo Luminescent Cell viability assay (Promega®) for DFC1362JC cells, 3000 Ba/F3 cells were seeded for per well in 96-well plates, and were exposed to representative compounds of the application (3.3 nM to 10 μM) for 72 hours. […]
Answer each item with its documented EC50.

So, C=CC(=O)Nc1cc(Nc2ncc3cc(Oc4ccc(F)cc4F)c(=O)n(C)c3n2)c(OC)cc1C1CCN(C)CC1 [Compound 128] ? Its EC50 was 200 to 600 nM

So, C=CC(=O)Nc1cc(Nc2ncc3cc(Oc4ccc(F)cc4F)c(=O)n(C)c3n2)cnc1N(C)CCN(C)C [Compound 113] ? Its EC50 was < 200 nM

So, C=CC(=O)Nc1cccc(-n2c(=O)c(Oc3c(F)cc(F)cc3F)cc3cnc(Nc4cnn(C)c4)nc32)c1 [Compound 82] ? Its EC50 was < 200 nM

So, C=CC(=O)Nc1cc(Nc2ncc3cc(Oc4ccccc4)c(=O)n(C)c3n2)c(OC)cc1N(C)CCN(C)C [Compound 132] ? Its EC50 was < 200 nM

So, C=CC(=O)N1CCC[C@@H](n2c(=O)c(Oc3ccc(F)cc3F)cc3cnc(Nc4cnn(C)c4)nc32)C1 [Compound 15] ? Its EC50 was < 200 nM
